Assay: in vitro
Conditions: human, Caco-2, pH 7.4
Recorded efflux ratio at 90 min, 10 μM values for a group of compounds are listed next.

Some entries whose results are on file:
[
  {
    "querySmiles": "Cc1cccnc1[C@@H]1C[C@H](O)C[C@H](c2nc3cccc(N4CCN(C)CC4)c3[nH]2)N1C",
    "efflux ratio at 90 min, 10 μM": "> 30"
  },
  {
    "querySmiles": "CCN1[C@@H](c2nc3ccccc3n2CC2CCN(C)CC2)CCC[C@H]1c1ncccc1C",
    "efflux ratio at 90 min, 10 μM": "0.1 to 10"
  },
  {
    "querySmiles": "COc1cccnc1[C@@H]1CCC[C@H](c2nc3cccc(N4CCN(C)CC4)c3[nH]2)N1C",
    "efflux ratio at 90 min, 10 μM": "0.1 to 10"
  },
  {
    "querySmiles": "Cc1nccnc1[C@@H]1CCC[C@H](c2nc3cccc(N4CCN(C)CC4)c3[nH]2)N1C",
    "efflux ratio at 90 min, 10 μM": "0.1 to 10"
  },
  {
    "querySmiles": "CN1CCN(c2cccc3nc([C@H]4CCC[C@@H](c5ccccn5)N4C)[nH]c23)CC1",
    "efflux ratio at 90 min, 10 μM": "0.1 to 10"
  },
  {
    "querySmiles": "Cc1cccnc1[C@@H]1CCC[C@H](c2nc3ccccc3n2CC2CCN(CC(F)(F)F)CC2)N1C",
    "efflux ratio at 90 min, 10 μM": "0.1 to 10"
  }
]

The recorded efflux ratio at 90 min, 10 μM for Cc1cccnc1[C@@H]1CCC[C@H](c2nc3ccccc3n2CC2CCN(C)CC2)N1C is 0.1 to 10

In plain terms, CN1CCC(n2ccnc2[C@H]2CCC[C@@H](c3ncccc3Cl)N2C)CC1 has a documented efflux ratio at 90 min, 10 μM of 0.1 to 10

Summary for this compound, Cc1cccnc1[C@@H]1CCC[C@H](c2nc3ccccc3n2CCCCN2CCC(F)(F)CC2)N1C : efflux ratio at 90 min, 10 μM is 0.1 to 10

Entry Cc1cccnc1[C@@H]1CCC[C@H](c2nccn2C2CCN(C3CC3)CC2)N1C — recorded efflux ratio at 90 min, 10 μM = 0.1 to 10

// Cc1cccnc1[C@@H]1CCC[C@H](c2nc3cccc(N4CC5CCC(C4)N5)c3[nH]2)N1C : efflux ratio at 90 min, 10 μM value = > 30

Item: Cc1cccnc1[C@@H]1CCC[C@H](c2nc3ccccc3n2CCn2cccn2)N1C | efflux ratio at 90 min, 10 μM: 0.1 to 10

---

Biological target: Jurkat cells expressing CXCR4 (Homo sapiens)
Construct: endogenous in cells
Sequence (P61073 whole entry): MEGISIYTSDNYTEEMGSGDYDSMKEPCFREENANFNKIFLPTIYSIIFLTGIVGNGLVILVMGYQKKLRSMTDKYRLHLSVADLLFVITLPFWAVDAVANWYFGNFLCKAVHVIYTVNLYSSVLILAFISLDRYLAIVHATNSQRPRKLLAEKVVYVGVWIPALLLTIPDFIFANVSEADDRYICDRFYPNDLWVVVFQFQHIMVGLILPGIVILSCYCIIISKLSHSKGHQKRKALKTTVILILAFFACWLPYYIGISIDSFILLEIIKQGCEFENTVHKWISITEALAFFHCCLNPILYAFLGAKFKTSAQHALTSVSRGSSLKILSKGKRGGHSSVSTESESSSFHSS
Assay: Chemokine (CXCL12-AF647) binding inhibition assay
Conditions: CXCL12-AF647 25 ng/mL, read-out: IC50 CXCL-12 binding Jurkat
Overview of recorded IC50 for various compounds

Record excerpt, results attached:
[
  {
    "compound": "CNCCCCn1c([C@H]2CCC[C@@H](c3ncccc3C)N2C)nc2ccccc21 [I-37]",
    "observationType": "IC50",
    "obsValue": "0.01 to 100 nM"
  },
  {
    "compound": "Cc1cccnc1[C@@H]1CCC[C@H](c2nc3ccccc3n2CCCCN)N1C [I-4]",
    "observationType": "IC50",
    "obsValue": "0.01 to 100 nM"
  },
  {
    "compound": "Cc1cc(F)cnc1[C@@H]1CCC[C@H](c2nccn2C2CCN(C)CC2)N1 [I-173]",
    "observationType": "IC50",
    "obsValue": "≥ 1000 nM"
  },
  {
    "compound": "Cc1cccnc1[C@@H]1CCC[C@H](c2nc3cccc(N4CCN(C)CC4)c3[nH]2)N1C (racemic) [I-3]",
    "observationType": "IC50",
    "obsValue": "0.01 to 100 nM"
  },
  {
    "compound": "CN1CCN(c2cccc3nc([C@H]4CCC[C@@H](c5nccc6c5OCCO6)N4C)[nH]c23)CC1 [I-65]",
    "observationType": "IC50",
    "obsValue": "100 to 1000 nM"
  }
]

Readout IC50 for CN1[C@@H](c2nc3cccc(N4CCN5CCCC5C4)c3[nH]2)CCC[C@H]1c1ncccc1Cl (some centres unmarked) [I-96] , test system Jurkat cells expressing CXCR4 (Homo sapiens), was 0.01 to 100 nM

Entry Cc1cccnc1[C@@H]1CCC[C@H](c2nc3ccccc3n2CC2CCN(CC(F)(F)F)CC2)N1C [I-24] ; assay system Jurkat cells expressing CXCR4 (Homo sapiens); IC50 recorded at 100 to 1000 nM

Record for CN(C)C1CCN(c2cccc3nc([C@H]4CCC[C@@H](c5ncccc5Cl)N4C)[nH]c23)CC1 [I-97] under target or system Jurkat cells expressing CXCR4 (Homo sapiens): IC50 reported as 0.01 to 100 nM
